Catalogue of virus neutralizing test on BHK-21 cells, IC50 values
- TESTED ON: FMDV O/Mya/98 146S antigen (Foot-and-mouth disease virus serotype …, UniProt G8JKC2, strain)
- TEST: cell-based or functional assay
Quick note: number first, unit second.

Past entries and their recorded results:
binder="F128 (antibody, V domains shown) VH: QVQLRESGPSLVKPSQTLSLTCTVSGFSLGTYTVTWVRQAPGKALEWVGEISGGGDTDYNPALKSRLSITKHNSKSQVSLSVSSVTPEDTATYYCARCYSTCGCGLSCTSEDSYYVNAWGQGLLVTVSS VL: QAVLTQPSSVSGSLGQRVSITCSGSSSNIGSYNVGWYQQVPGSGLTTIIYGTNNRPSGVPDRFSGSKSGNTATLTISSLRAEDEADYFCVTYDSTSSTIFGTGTTLTVL" observed_result="0.98 µg/mL"
binder="B57 (antibody, V domains shown) VH: QVQLRESGPSLVKPSQTLSLTCTVSGFSLSGYAVTWVRRAPGQALECLGGISRGGLTNNNPALRSRVSITKDDSKSQVSLSVSTVTPEDTATYYCVRLGATKFGDYGCYGYGLYVDTWGQGLPVTVSS VL: QAVLTQPSSVSGSLGQRVSITCSGSSSNIGRHGVSWYQQVPGSGLRTIIYSGNSRPSGVPDRFSGSKSGNTATLTISSLLAEDEADYFCAADDIVSRTTFFGSVTTLTVL" observed_result="2.6 µg/mL"

Query: virus neutralizing test on BHK-21 cells, IC50; subject: E50 (antibody) VH: QVQLRESGPSLVKPSQTLSLTCTASGFSLSDKAVGWVRQAPGKALEWLGSVDTSGSTGYNPGLESRLIITKDNSKSRVSLSVHSVTSEDSATYYCVTVHQKSRDEKSCPDGYIDGAGCKYGWPCSDQDCCVCSSCVYGYSGMNCVPARYSESYEWNVEAWGQGLLVTVSS VL: QAVLTQPSSVSGSLGQRVSITCSGSSTNVGNGYVSWYQLIPGSAPRTLIYGDTTRASGVPDRFSGSRSGNTATLTISSLQAEDEADYSCASAEDSSSNAVFGSGTTLTVL
Reply: 11.5 µg/mL
